TARGET_ENTITY: stripped human Hb (Homo sapiens, UniProt P68871+P69905)
Construct: from tissue; host or cells: human blood (red blood cell hemolysate, gel-filtered on Sephadex G-25 to remove BPG)
Sequence (P68871 2-147 limits assumed): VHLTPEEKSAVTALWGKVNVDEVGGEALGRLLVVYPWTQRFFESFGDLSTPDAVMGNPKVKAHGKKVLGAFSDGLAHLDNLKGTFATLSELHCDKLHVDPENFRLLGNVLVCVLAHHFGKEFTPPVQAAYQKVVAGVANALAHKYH
Sequence (P69905 2-142 limits assumed): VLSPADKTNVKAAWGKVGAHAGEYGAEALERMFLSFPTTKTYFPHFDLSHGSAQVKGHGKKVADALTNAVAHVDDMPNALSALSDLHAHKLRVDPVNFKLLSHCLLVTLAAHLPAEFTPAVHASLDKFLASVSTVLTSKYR
TEST_SUMMARY: Oxygen equilibrium curves of stripped hemoglobin (Hemox Analyzer), P50 shift
Format: biochemical
EXPERIMENTAL_CONTEXT: compound:Hb molar ratio 20:1, TES-saline buffer pH 7.4
Examples of compounds with documented shift of the Hb oxygenation curves (P50) follow.
Reply with just the number (in %).

Worked set:
COMPOUND	TARGET_ENTITY	NUMBER
O=P(O)(O)O[C@@H]1O[C@H](CO)[C@H](OP(=O)(O)O)[C@H](OP(=O)(O)O)[C@H]1OP(=O)(O)O [Compound 34, β-galactose 1,2,3,4-tetrakisphosphate]	stripped human Hb (Homo sapiens, UniProt P68871+P69905)	259
O=P(O)(O)OC[C@H]1O[C@@H](O[C@H]2[C@H](OP(=O)(O)O)[C@@H](OP(=O)(O)O)C(OP(=O)(O)O)O[C@@H]2COP(=O)(O)O)[C@H](OP(=O)(O)O)[C@@H](OP(=O)(O)O)[C@H]1OP(=O)(O)O (stereo partly drawn) [Compound 55, lactose octakisphosphate]	stripped human Hb (Homo sapiens, UniProt P68871+P69905)	550
CO[C@H]1O[C@H](COP(=O)(O)O)[C@@H](OP(=O)(O)O)[C@H](OP(=O)(O)O)[C@H]1OP(=O)(O)O [Compound 41, 1-O-methyl-α-glucose tetrakisphosphate]	stripped human Hb (Homo sapiens, UniProt P68871+P69905)	264
O=P(O)(O)O[C@H]1[C@H](OP(=O)(O)O)[C@@H](OP(=O)(O)O)[C@H](OP(=O)(O)O)[C@@H](OP(=O)(O)O)[C@H]1OP(=O)(O)O [IHP, myo-inositol hexakisphosphate, reference compound]	stripped human Hb (Homo sapiens, UniProt P68871+P69905)	466
O=P(O)(O)O[C@H]1O[C@H](CO)[C@H](OP(=O)(O)O)[C@H](OP(=O)(O)O)[C@H]1OP(=O)(O)O [Compound 33, α-galactose 1,2,3,4-tetrakisphosphate]	stripped human Hb (Homo sapiens, UniProt P68871+P69905)	226
CO[C@H]1O[C@H](CO)[C@@H](OP(=O)(O)O)[C@H](OP(=O)(O)O)[C@H]1OP(=O)(O)O [Compound 8, 1-O-methyl-α-glucose 2,3,4-trisphosphate]	stripped human Hb (Homo sapiens, UniProt P68871+P69905)	113

shift of the Hb oxygenation curves (P50) of CO[C@H]1O[C@H](CO)[C@@H](OP(=O)(O)O)[C@H](OP(=O)(O)O)[C@@H]1OP(=O)(O)O [Compound 10, 1-O-methyl-α-mannose 2,3,4-trisphosphate] , assay on stripped human Hb (Homo sapiens, UniProt P68871+P69905), is 144

Tested on stripped human Hb (Homo sapiens, UniProt P68871+P69905): O=P(O)(O)OC[C@H]1O[C@H](OP(=O)(O)O)[C@H](OP(=O)(O)O)[C@@H](OP(=O)(O)O)[C@@H]1OP(=O)(O)O [Compound 47, α-glucose pentakisphosphate] . Observed shift of the Hb oxygenation curves (P50): 466

Entry O=P(O)(O)OC[C@H]1O[C@H](OP(=O)(O)O)[C@@H](OP(=O)(O)O)[C@@H](OP(=O)(O)O)[C@@H]1OP(=O)(O)O [Compound 49, α-mannose pentakisphosphate] , stripped human Hb (Homo sapiens, UniProt P68871+P69905) data, shift of the Hb oxygenation curves (P50) value: 520
